Test system: L. major amastigotes
Experiment: Leishmania major amastigotes in peritoneal macrophages (percentage of infected macrophages, 72 h)
Type: cell-based
Conditions: Macrophage, IC50 ± SD
Description: Promastigotes of L. major were obtained from a patient (February 2016) and cultured at 26 °C in Schneider’s Drosophila medium (Invitrogen, Carlsbad, CA, USA) supplemented with 10% heat-inactivated fetal bovine serum (FBS, Invitrogen, USA) and antibiotics, with weekly transfers in a tissue culture flask. Promastigotes were cryopreserved in liquid nitrogen at a concentration of 3 × 10^6 parasites/mL. […]
Test readout: IC50

Data request, read-out IC50, for `CN(C)c1ccc(/C=C/C=N/NC(=O)c2cccc(F)c2)cc1`
> 42.4 µM

So what's the measured IC50 for this one? `O=C(N/N=C/C=C/c1ccccc1)c1cccc(O)c1`
> 49.6 µM

Look up IC50: CC(C)Cc1ccc(CC(C)/C=N/NC(=O)c2cccc(O)c2)cc1 (stereo not shown)
> 59.1 µM

Data request, read-out IC50, for CC(C)Cc1ccc(CC(C)/C=N/NC(=O)c2ccccc2F)cc1 (stereo not shown)
> 58.8 µM

Consider the compound CC(C)Cc1ccc(CC(C)/C=N/NC(=O)c2cccc(Cl)c2)cc1 (stereo not shown) and give its measured IC50.
> 56 µM

Reported IC50, compound CC(C)c1cccc(C(C)C/C=N/NC(=O)c2ccccc2F)c1 (stereo not shown) : ____
> 61.3 µM

What IC50 value was documented for this compound, `O=C(N/N=C/C=C/c1ccccc1)c1cc2ccccc2cc1O` ?
> 41.7 µM

# query: IC50 of entry CC(C)Cc1ccc(CC(C)/C=N/NC(=O)c2cccc(F)c2)cc1 (stereo not shown)
> 58.8 µM

Return reported IC50; argument: `O=C(N/N=C/C=C/c1ccccc1)c1ccccc1O`
> 49.6 µM

// returns reported IC50 for input CC(C)Cc1ccc(CC(C)C=O)cc1 (stereo not shown) [Silvial^TM, reference compound]
> 97.9 µM

What value of IC50 has been recorded for this entry: `CN(C)c1ccc(/C=C/C=N/NC(=O)c2cc3ccccc3cc2O)cc1`
> 36.7 µM

Quick check: IC50 of CC(C)c1cccc(C(C)C/C=N/NC(=O)c2cccc(Cl)c2)c1 (stereo not shown) ?
> 58.3 µM

What does the record list as IC50 for `CN(C)c1ccc(/C=C/C=N/NC(=O)c2cccc(Cl)c2)cc1` ?
> 40.3 µM

// IC50 lookup, key: CC(C)c1cccc(C(C)C/C=N/NC(=O)c2ccccc2O)c1 (stereo not shown)
45.4 µM

Could you tell me which IC50 is on file for `CN(C)c1ccc(/C=C/C=N/NC(=O)c2ccncc2)cc1` ?
> 44.8 µM

Give its IC50 value. Item: CC(C)Cc1ccc(CC(C)/C=N/NC(=O)c2ccncc2)cc1 (stereo not shown)
> 61.8 µM

State the recorded IC50 for this entry: `O=C(N/N=C/C=C/c1ccccc1)c1ccncc1`
> 52.5 µM

Looking for the measured IC50 of CC(C)c1cccc(C(C)C/C=N/NC(=O)c2ccncc2)c1 (stereo not shown) , can you help?
> 64.6 µM

# lookup: IC50 of CC(C)c1cccc(C(C)CC=NNC(=O)c2cc3ccccc3cc2O)c1 (stereo not shown)
> 53.4 µM

----------
System: macrophages
Test: Macrophage cytotoxicity (MTT assay, 72 h)
Format: cell-based, BALB/c mice
Settings: Mus musculus, IC50 ± SD
pIC50: −log10 of the molar value.
I'd be grateful if you could share measured pIC50 for these entries.

Suppose we examine the compound CN(C)c1ccc(/C=C/C=N/NC(=O)c2cccc(F)c2)cc1 [Compound 2j] ; what pIC50 value has been reported?
< 4.37

Name the reported pIC50 value associated with the compound O=C/C=C/c1ccccc1 [Cinnamaldehyde, (2E)-3-phenylprop-2-enal]
< 3.82

May I ask what pIC50 has been recorded for CC(C)c1cccc(C(C)C/C=N/NC(=O)c2ccccc2O)c1 (stereo not shown) [Compound 4b] ?
4.30

Recorded pIC50 for O=C(N/N=C/C=C/c1ccccc1)c1cccc(F)c1 [Compound 2i] , please?
< 4.31

What value of pIC50 has been recorded for this entry: CC(C)Cc1ccc(CC(C)/C=N/NC(=O)c2ccncc2)cc1 (stereo not shown) [Compound 3g]
< 4.21

pIC50 for CN(C)c1ccc(/C=C/C=N/NC(=O)c2cc3ccccc3cc2O)cc1 [Compound 2b] ?
< 4.44

// lookup pIC50 for CC(C)c1cccc(C(C)C/C=N/NC(=O)c2ccccc2F)c1 (stereo not shown) [Compound 4d]
< 4.21

If you can, please state the reported pIC50 value of CC(C)c1cccc(C(C)C/C=N/NC(=O)c2cccc(Cl)c2)c1 (stereo not shown) [Compound 4f] .
< 4.23

I have this compound here, CN(C)c1ccc(/C=C/C=N/NC(=O)c2ccncc2)cc1 [Compound 2m] , and I need its recorded pIC50.
< 4.35

Which pIC50 value is on record for CC(C)c1cccc(C(C)C/C=N/NC(=O)c2ccncc2)c1 (stereo not shown) [Compound 4g] ?
< 4.19

Param item = O=C(N/N=C/C=C/c1ccccc1)c1cc2ccccc2cc1O [Compound 2a] ; retrieve measured pIC50.
< 4.38

Consider the compound O=C(N/N=C/C=C/c1ccccc1)c1cccc(O)c1 [Compound 2e] and give its measured pIC50.
< 4.30

pIC50 for C(=C\c1ccccc1)/C=N/Nc1ccccc1 [CPH, Cinnamaldehyde phenyl hydrazone, reference compound] ?
4.11

Record request: pIC50 value, item CC(C)Cc1ccc(CC(C)/C=N/NC(=O)c2cc3ccccc3cc2O)cc1 (stereo not shown) [Compound 3a]
< 4.29

Look up pIC50 for this compound: CC(C)Cc1ccc(CC(C)/C=N/NC(=O)c2cccc(F)c2)cc1 (stereo not shown) [Compound 3e]
< 4.23

So what does the record say about pIC50 for CC(C)c1cccc(C(C)CC=O)c1 (stereo not shown) [Florhydral^TM, 3-(3-isopropylphenyl)butanal, reference compound] ?
< 3.98

Origin of the recorded values: paper PMC11672724
